I'd appreciate it if you could supply TGI values for the items below.
Tested on: MDA-MB-231 breast
Test: NCI tumour cell line growth inhibition, 48 h

Prompt line: Could you tell me which TGI is on file for `CCOC(=O)C1=C(C)N=C2SC=C(c3ccccc3)N2[C@H]1c1cn[nH]c1-c1ccc(Cl)cc1` ?
Response line: 7.96 µM

Prompt line: I'd like to know its TGI. The molecule in question is `O=C1Nc2ccc(Cl)cc2C(=O)N2CCC[C@@H]12`
Response line: > 100 µM

Prompt line: # input molecule: `COc1ccc(-c2cc(=O)oc3ccc(Cl)cc23)cc1F` ; wanted: its TGI
Response line: > 100 µM

Prompt line: If you can, please state the reported TGI value of `COc1ccc(O)c2c(=O)c3c(OC)cc4c(c3oc12)[C@@H]1C=CO[C@@H]1O4` .
Response line: > 100 µM

---

Tested on: HCT-116 colon
Test: NCI tumour cell line growth inhibition, 48 h
What TGI was measured for each of the following?
Please state the figure in µM; there is no need to write the unit.

Prompt line: # input compound: `Cc1nc2ccc(Nc3nc(Cl)nc(Nc4ccc(F)cc4)n3)cc2n1Cc1ccccc1` ; wanted: its TGI
Response line: 13.6

Prompt line: Look up TGI for this compound: `COc1cc2c3c(n(CCCn4ccnc4)c(=O)c2cc1OC)-c1cc2c(cc1C3=O)OCO2`
Response line: 0.148

---

Tested on: HT29 colon
Assay: NCI tumour cell line growth inhibition, 48 h
ASSAY READOUT: TGI

Prompt line: What measured TGI goes with CC[C@]1(O)CC2CN(CCCc3c([nH]c4ccccc34)[C@@](C(=O)OC)(c3cc4c(cc3OC)N(C)C3C45CCN4CC=C[C@](CC)(C45)C(OC(C)=O)[C@@]3(O)C(=O)OC)C2)C1 (stereo partly specified) ?
Response line: > 3.44 µM

Prompt line: What does the record list as TGI for CSc1nc2c(nc(N)n2C2OC(CO)C(O)C(O)C2O)c(=O)n1C (stereo unspecified) ?
Response line: > 100 µM

Prompt line: Consider the compound `CCN(Cc1cccnc1)c1ccc(CO)c(Cl)c1` and give its measured TGI.
Response line: > 100 µM

Prompt line: Entry Cc1ccc(C2C(C(=O)C(C)(C)C)N2S(=O)(=O)c2ccc(C)cc2)cc1 (stereo unspecified) : reported TGI = ?
Response line: 65.2 µM

Prompt line: Which TGI is listed for `COc1ccc(-c2cc(=O)c3cc(C)cnc3[nH]2)cc1` ?
Response line: 5.9 µM

Prompt line: TGI lookup needed for `COc1cccc(C(=O)c2sc(Nc3ccc(N4CCN(C(C)C)CC4)cc3)nc2N)c1` , thanks.
Response line: 12.8 µM

Prompt line: Dear colleague, I am looking for the recorded TGI of the following compound: `O=C(CI)OCC(COC(=O)CI)OC(=O)CI`
Response line: 8.91 µM

Prompt line: Could you share which TGI value was measured for `O=c1ssc2c1Nc1c(ssc1=O)S2` ?
Response line: 73.8 µM

Prompt line: Which value of TGI has been reported for `O=C(Cc1csc2nc(-c3ccc(Br)cc3)cn12)N/N=C/c1ccccc1` in the records?
Response line: > 100 µM

Prompt line: Name the reported TGI value associated with the compound `COc1ccc(/C=N/Nc2nc(-c3cc4oc(=O)n(C)c4cc3Cl)cs2)cc1OC`
Response line: > 100 µM

Prompt line: Can you look up the measured TGI of `Nc1nc(N)c(-c2cccc(C(F)(F)F)c2)c(Cc2cccc(C(F)(F)F)c2)n1` for me?
Response line: 10.9 µM

Prompt line: I am curious: what TGI value has been reported for `Cc1csc(-n2nc(C)cc2C)n1` ?
Response line: > 100 µM

Prompt line: Recorded TGI for `NC1CCCCC1` , please?
Response line: > 562 µM

Prompt line: For O=C1CSC(c2cccc([N+](=O)[O-])c2)N1c1ccc(-c2ccc(-n3c(-c4ccccc4)nc4ccccc4c3=O)cc2)cc1 (stereo unspecified) , what is its reported TGI?
Response line: > 100 µM

Prompt line: Entry under review: `CN(C)c1ccc(/C=C(\C#N)c2nc(-c3cc4ccccc4oc3=O)cs2)cc1` . Reported TGI?
Response line: > 50 µM

Prompt line: Would you mind telling me what TGI value was observed for C=C(C)c1ccccc1 (tested in a mixture with another compound) ?
Response line: > 100 µM

---

Kindly state TGI for each of the entries shown.
Tested on: CCRF-CEM leukemia
Experiment: NCI tumour cell line growth inhibition, 48 h

Prompt line: I have this molecule here, `NNC(=O)c1n[nH]n(N)c1=S` , and I need its recorded TGI.
Response line: > 100 µM

Prompt line: Find the recorded TGI belonging to `[N-]=[N+]=NC1=C(C(=O)c2ccccc2)C(=O)c2cccc3cccc1c23` and report it.
Response line: > 100 µM

Prompt line: Name the recorded TGI for `CN[C@H](C)[C@@H](OC)c1ccccc1` .
Response line: > 100 µM

Prompt line: Name the reported TGI value associated with the molecule `CCOC(=O)C(Cc1c(C=O)[nH]c2ccccc12)(NC(=O)c1ccccc1)C(=O)OCC`
Response line: 39 µM

Prompt line: Bench note: what TGI did `C[n+]1[se]c2ccccc2c1Cl` show?
Response line: 21.5 µM

Prompt line: # lookup: TGI of `O=C(O)CN(CCN(CC(=O)O)CC(=O)O)CC(=O)O`
Response line: > 100 µM

Prompt line: May I ask what TGI has been recorded for `NC(=O)c1ncn2c1CNC(=O)C2` ?
Response line: > 100 µM

Prompt line: Looking for the measured TGI of CC(C)=Cc1cc2c(cc1O)CCC1C2CC[C@@]2(C)C1CC[C@@H]2O (some centres undefined) , can you help?
Response line: 40.8 µM

Prompt line: // lookup TGI for `CCCCCNC(=O)c1cc2cc(CCl)ccc2oc1=O`
Response line: > 100 µM

Prompt line: Look up TGI for this molecule: `CCN(Cc1cccnc1)c1ccc(CO)c(Cl)c1`
Response line: > 100 µM

Prompt line: // query TGI value for entry `O=C(Cc1csc2nc(-c3ccc(Br)cc3)cn12)N/N=C/c1ccccc1`
Response line: > 100 µM

Prompt line: Please look up its TGI: `COc1cc(/C=C2\CN(S(=O)(=O)c3ccc(C)cc3)C/C(=C\c3cc(CN4CCOCC4)c(O)c(OC)c3)C2=O)cc(CN2CCOCC2)c1O`
Response line: > 100 µM

Prompt line: What value of TGI has been reported for the following molecule? `Cc1cc(C)c2ccc(N3CCNCC3)nc2n1`
Response line: > 100 µM

Prompt line: So what's the measured TGI for this one? O=C(Nc1ccc(F)cc1)C(=O)C(C(=O)c1ccccc1F)C1OC(=O)c2ccccc21 (centres undefined)
Response line: 90.8 µM

---

Tested on: K-562 leukemia
Form entry, call: pick from active, inactive

Prompt line: Please indicate how the test categorized `CCC(=O)O[C@@H]([C@H](C)[C@H]1OC(CC)=C(C)C(=O)[C@@H]1C)[C@@H](C)C(=O)CC` .
Response line: inactive

Prompt line: Record lookup: outcome of this test for `O=C1Nc2ccccc2/C1=C/C(=O)c1ccc(N2CCCC2)cc1` ?
Response line: inactive

Prompt line: Tell me the recorded outcome of this test for `O=C(c1ccccc1)c1c(C(F)(F)F)n([O-])c2ccc(F)cc2[n+]1=O` .
Response line: active

Prompt line: Could you please tell me the result logged for `O=C(O)CN(CCN(CC(=O)O)CC(=O)O)CC(=O)O` in this assay?
Response line: inactive

Prompt line: How did this test come out for `O=C1c2ccccc2C(=O)c2c(Nc3ccc(CCO)cc3)ccc(O)c21` ?
Response line: inactive

Prompt line: Hi, sorry to bother you, what did the test record for `COc1cc2c(cc1OC)[C@@H]1C(=O)c3cc4c(cc3[C@@H]1N(CCN(C)C)C2=O)OCO4` ?
Response line: active

---

Tested on: UO-31 renal
Assay: NCI tumour cell line growth inhibition, 48 h
ASSAY READOUT: TGI

Prompt line: Missing value: TGI, UO-31 renal, entry `CCN(Cc1cccnc1)c1ccc(CO)c(Cl)c1` . Fill in?
Response line: > 100 µM

Prompt line: Query the reported TGI for UO-31 renal; item: `Cc1csc(-n2nc(C)cc2C)n1`
Response line: > 100 µM

Prompt line: // map `O=C(O)/C=C/C=C/c1ccc2c(c1)OCO2` to recorded TGI (system: UO-31 renal)
Response line: > 100 µM

Prompt line: Item `COc1cc(Nc2c(C#N)[n+]([O-])c3ccccc3[n+]2[O-])cc(OC)c1OC` with UO-31 renal - TGI?
Response line: > 100 µM

Prompt line: API: value(readout= TGI, system= UO-31 renal, query= Nc1cc(C(=O)NC2C3CC4CC(C3)CC2C4)[nH]c(=S)n1 (stereo unspecified) )
Response line: > 100 µM

Prompt line: Lookup: TGI / UO-31 renal / Cc1ccc(C2C(C(=O)C(C)(C)C)N2S(=O)(=O)c2ccc(C)cc2)cc1 (stereo unspecified)
Response line: 32.6 µM

Prompt line: Item CCCCCCCC/C=C(\Br)C(O)C(Br)Br (stereo unspecified) with UO-31 renal - TGI?
Response line: 38.8 µM

Prompt line: Recall the recorded TGI for CN(C)c1ccc(C(C#N)NNC(=O)Cc2ccccc2)cc1 (stereo unspecified) with UO-31 renal and state it.
Response line: > 100 µM

Prompt line: API: value(readout= TGI, system= UO-31 renal, query= `C/C(=N\NC(=O)c1ccc(C(C)(C)C)cc1)c1ccc(O)cc1O` )
Response line: > 100 µM

Prompt line: Identify the measured TGI of `CCC1(CC)C(=O)N(C(=O)c2ccc(C)cc2)N(C(=O)c2ccc(C)cc2)C1=O` for UO-31 renal.
Response line: > 75 µM

Prompt line: Quick check: TGI on UO-31 renal, item CC[C@]1(O)CC2CN(CCCc3c([nH]c4ccccc34)[C@@](C(=O)OC)(c3cc4c(cc3OC)N(C)C3C45CCN4CC=C[C@](CC)(C45)C(OC(C)=O)[C@@]3(O)C(=O)OC)C2)C1 (stereo partly specified) ?
Response line: > 10 µM

Prompt line: Field: TGI (UO-31 renal). Entry: `Cc1ccc(S(=O)(=O)CC(=O)CC(=O)C(=O)Nc2cccc(C(F)(F)F)c2)cc1`
Response line: > 100 µM

Prompt line: I'm curious: which TGI was measured for `Cc1ncc(-c2nnnn2-c2ccccc2)c(C(=O)O)n1` tested on UO-31 renal?
Response line: > 100 µM

Prompt line: Fill in the recorded TGI for this compound, with UO-31 renal as test system: `O=C(Nn1cc(F)c(=O)[nH]c1=O)C12CC3CC(CC(C3)C1)C2`
Response line: 54.4 µM

Prompt line: Item: `COc1ccc(N2C(=O)/C(=C/c3ccc(N(CCC#N)CCC#N)cc3C)N=C2/C=C\c2ccccc2)cc1` Test system: UO-31 renal Read-out: TGI Value: ?
Response line: 75 µM

Prompt line: Recorded TGI for `CCOC(=O)C1=C(C)N=C2SC=C(c3ccccc3)N2[C@H]1c1cn[nH]c1-c1ccc(Cl)cc1` with UO-31 renal, please?
Response line: 9.53 µM
